Experiment: Pharmacokinetic studies in human, Compound I in plasma by LC/MS/MS
Type: in vivo
Details: human, plasma, iv, 325 mg/m2, Group 6, 325 mg/m^2 IV, Day 1, mean, n = 3

ENTRY SMILES: Cc1cnc(CNC(=O)c2c(=O)c3ccc(N4CCCN(C)CC4)nc3n3c2sc2ccccc23)cn1
clearance (mL/min): 390

* * *

Test: Pharmacokinetic studies in human, Compound I in plasma by LC/MS/MS
Type: in vivo
Conditions: human, plasma, iv, 475 mg/m2, Group 9, 475 mg/m^2 IV, Day 1, mean, n = 5

ENTRY SMILES: Cc1cnc(CNC(=O)c2c(=O)c3ccc(N4CCCN(C)CC4)nc3n3c2sc2ccccc23)cn1
READOUT UNIT: h
Tmax: 1.18
